tested on: Human papillomavirus type 1a protein E7 (residues 44-93); test: HPV1a E7 fragment binders on microarrays, primary screen, biochemical, small-molecule microarray, residues 44-93, 635 nm fluorescence (AID 1108); details: small-molecule microarray binding, fluorescence 635 nm; higher = more signal;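 also: E7 fragment applied at 1 µg/mL in TBST for 1 h at 4 C; score combines spot fluorescence with its signal to noise ratio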
Threshold check on composite z-score: at or above 0.1 gives satisfied, strictly below gives not satisfied.

[[record]]
compound = "CCOC(=O)[C@H](CC(C)C)NC(=O)CCC1CC(OC(=O)NCc2ccc3c(c2)OCO3)CC2(CCCC(COC(=O)NCCc3ccccc3OC)O2)O1 (stereo partly drawn)"
qualitative_label = "satisfied"

[[record]]
compound = "COc1ccc(OC[C@@H](CO)OC)cc1"
qualitative_label = "not satisfied"

[[record]]
compound = "CCN1C(C)=C(C(=O)OC)[C@@H](c2ccccc2)N2C(=O)[C@](O)(C(=O)OC)CC(C(C)=O)=C12"
qualitative_label = "satisfied"

[[record]]
compound = "COC(=O)CC=C[C@@H](C)[C@@H](C=NOC[C@@H](O)COCc1ccco1)OC"
qualitative_label = "satisfied"

[[record]]
compound = "COc1ccc(O[C@H]2C=C[C@@H](c3ccccc3)O[C@@H]2CON=C2c3cc(OC)ccc3O[C@H](c3cccc(OC)c3)[C@H]2O)cc1"
qualitative_label = "not satisfied"

[[record]]
compound = "CC(C)[C@H](NC(=O)OC(C)(C)C)[C@@H](O)CC(=O)C(C)(C)C"
qualitative_label = "satisfied"

[[record]]
compound = "COCOc1ccc(Br)cc1C(=O)C=Cc1ccc2c(c1)OCO2"
qualitative_label = "not satisfied"

[[record]]
compound = "COc1cccc([C@H](O)Cn2cc(-c3ccc(CON=C(C)C)cc3)nn2)c1"
qualitative_label = "not satisfied"


* * *

biological target: Neurogenic locus notch homolog protein 3 (Homo sapiens); assay: NOTCH3 binders on small-molecule microarray, primary screen, biochemical, 635/667 nm fluorescence (AID 1096); details: NOTCH3 binding, 635 nm fluorescence, higher = more signal
Label t when composite z-score is at or above 0.6; otherwise label f.

[[record]]
molecule = "O=C1[C@H]2[C@H]3[C@H](O)[C@H](O)CC(=NOC[C@@H](O)COCc4ccco4)[C@@H]3CC[C@H]2C(=O)N1Cc1ccc2c(c1)OCO2"
qualitative_label = "f"

[[record]]
molecule = "COC(=O)[C@H](C)NC(=O)CCC1CC(OC(=O)NCCc2ccc(F)cc2)CC2(CCCC(COC(=O)NCCOc3ccccc3)O2)O1 (stereo not given in full)"
qualitative_label = "t"

[[record]]
molecule = "CC(C)=NOC(C)CN1CCCc2nc(C)c(C)cc21 (stereo not given)"
qualitative_label = "t"

[[record]]
molecule = "COC(=O)CC=C1c2ccccc2[C@H](OC)[C@H]1C"
qualitative_label = "f"

[[record]]
molecule = "CCCNC(=O)OC[C@H]1O[C@H](CCON=C[C@@H](C)[C@H](OCc2ccccc2)C(C)C)C=C[C@@H]1Oc1ccc(OC)cc1"
qualitative_label = "f"

[[record]]
molecule = "CSCC[C@@H]1NC(=O)CC=C[C@@H](C)COC(=O)[C@H](C)COC1=O"
qualitative_label = "t"

[[record]]
molecule = "COc1ccc(COC(=O)NN=C2C[C@@H](O)[C@@H](O)[C@@H]3[C@@H]4C(=O)N(Cc5ccccc5)C(=O)[C@@H]4CC[C@@H]23)cc1"
qualitative_label = "t"

[[record]]
molecule = "Cc1cc2c(nc1C)CCCCN2CC(O)CN1CCCc2nc(-c3ccc(Br)cc3)ccc21 (stereo not given)"
qualitative_label = "t"

[[record]]
molecule = "C=CC[C@@H]1C=C[C@H](Oc2ccc(C)cc2)[C@@H](COC(=O)NCc2cccc3ccccc23)O1"
qualitative_label = "f"

[[record]]
molecule = "COc1ccc(COC(=O)NN=C2C[C@@H](O)[C@@H](O)[C@@H]3[C@@H]4C(=O)N([C@@H](C)c5ccccc5)C(=O)[C@@H]4CC[C@H]23)cc1"
qualitative_label = "f"

[[record]]
molecule = "COc1ccc(OC[C@@H]2CC3[C@@H](c4ccc(Br)cc4)[C@H](C)CC[C@H]3C(=O)O2)cc1 (stereo not given in full)"
qualitative_label = "f"

[[record]]
molecule = "O=C(NN=C1C[C@@H](O)[C@@H](O)[C@@H]2[C@@H]3C(=O)N(c4ccc(F)cc4F)C(=O)[C@@H]3CC[C@H]12)OCc1ccccc1"
qualitative_label = "t"

[[record]]
molecule = "CO[C@H]1COC(=O)CC=C[C@@H](C)COC(=O)[C@H]2CCCN2C(=O)CC=C[C@H]1C"
qualitative_label = "f"

[[record]]
molecule = "CC(CCN1CCc2nc(-c3ccccc3)c(-c3ccccc3)cc2C1)=NO[C@H](C)c1cn([C@H](CO)Cc2ccccc2)nn1"
qualitative_label = "f"

[[record]]
molecule = "CON=C1c2cc(OC)ccc2O[C@H](c2cccc(OC)c2)[C@H]1O"
qualitative_label = "t"

[[record]]
molecule = "COc1ccc(COC(=O)NN=C2C[C@@H](O)[C@@H](O)[C@@H]3[C@@H]4C(=O)N(C(C)(C)C)C(=O)[C@@H]4CC[C@@H]23)cc1"
qualitative_label = "t"

[[record]]
molecule = "CC(=O)OC[C@H]1O[C@@H](ON=C(C)CCC(=O)OC[C@H]2O[C@H](C#Cc3ccccc3)C=C[C@@H]2Oc2ccc(C)cc2)[C@H](OC(C)=O)[C@@H](OC(C)=O)[C@@H]1OC(C)=O"
qualitative_label = "t"

[[record]]
molecule = "O=C1C=C[C@@H](O)[C@@H]2[C@@H]3C(=O)N(C4CCCCC4)C(=O)[C@@H]3CC[C@@H]12"
qualitative_label = "t"

[[record]]
molecule = "CCOC(=O)CCN1C(=O)[C@H]2[C@H]3[C@H](O)[C@H](O)CC(=NO[C@@H]4O[C@H](CO)[C@@H](O)[C@H](O)[C@H]4O)[C@@H]3CC[C@H]2C1=O"
qualitative_label = "t"

